# Assay target: human QRFP receptor (GPR103) (Homo sapiens)
# Construct: membrane specimen
# Sequence (Q96P65 1-431): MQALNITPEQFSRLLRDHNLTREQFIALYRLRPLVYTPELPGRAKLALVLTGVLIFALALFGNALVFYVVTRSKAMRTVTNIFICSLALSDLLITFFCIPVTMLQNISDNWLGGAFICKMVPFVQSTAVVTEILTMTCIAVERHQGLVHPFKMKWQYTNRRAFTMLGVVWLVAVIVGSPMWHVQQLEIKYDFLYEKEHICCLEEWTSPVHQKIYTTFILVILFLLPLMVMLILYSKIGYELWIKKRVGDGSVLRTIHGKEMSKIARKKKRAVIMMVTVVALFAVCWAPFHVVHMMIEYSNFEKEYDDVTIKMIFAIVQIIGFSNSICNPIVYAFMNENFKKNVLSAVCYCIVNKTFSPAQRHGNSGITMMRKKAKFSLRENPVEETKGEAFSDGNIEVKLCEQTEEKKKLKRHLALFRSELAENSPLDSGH
# Experimental protocol: QRFP43 binding inhibition test ([125I]QRFP43, membranes of GPR103-expressing CHO-K1 cells)
# Condition label: membrane specimen from QRFP receptor (GPR103) expressing cells, 25° C., 1 hour, 20,000 cpm [125I]QRFP43; read-out: IC50 (50% inhibition concentration for the specific [125I] QRFP43 binding)
pIC50: −log10 of the molar value.
Form field: pIC50 (one value per entry).

Compound string | Assay target | pIC50
CN1CCN(Cc2ccc(F)c(-c3cc4ccccc4n3C)c2)CC1 | human QRFP receptor (GPR103) (Homo sapiens) | 7.32
CN1CCN(Cc2cc(-c3cc4ccccc4n3C)ncc2F)CC1 | human QRFP receptor (GPR103) (Homo sapiens) | 7.48
CN1CCN(Cc2cnc(-c3cc4ccccc4n3C)s2)CC1 | human QRFP receptor (GPR103) (Homo sapiens) | 7.30
CN1CCN(Cc2cncc(-c3cc4ccccc4n3C)c2)CC1 | human QRFP receptor (GPR103) (Homo sapiens) | 6.95
CN1CCN(Cc2cnc(F)c(-c3cc4ccccc4n3C)c2)CC1 | human QRFP receptor (GPR103) (Homo sapiens) | 7.28
